Reported kcat is given for each of the following compounds.
system: Salinispora tropica CNB-440; assay: Effect on Salinispora tropica CNB-440 wild type recombinant SalL expressed in Escherichia coli BL21(DE3)-mediated S-Adenosyl methionine formation after 30 mins by HPLC analysis

Example compounds with recorded kcat:
> print(dat)
                              line.notation                       target  metric  observed.result
1  Nc1ncnc2c1ncn2[C@@H]1O[C@H](CCl)[C@@H](O)[C@H]1O  Salinispora tropica CNB-440    kcat         12 min⁻¹
2                        CSCC[C@H](N)C(=O)O  Salinispora tropica CNB-440    kcat         12 min⁻¹

Param readout= kcat; system= Salinispora tropica CNB-440; entry= Nc1ncnc2c1ncn2[C@@H]1O[C@H](CI)[C@@H](O)[C@H]1O ; returns value.
50 min⁻¹

====

system: Salinispora tropica CNB-440; test: Ratio of Kcat to Km for Salinispora tropica CNB-440 wild type recombinant SalL expressed in Escherichia coli BL21(DE3) for formation of S-Adenosyl methionine
Metric: kcat/Km

Could you share which kcat/Km value was measured for Nc1ncnc2c1ncn2[C@@H]1O[C@H](CCl)[C@@H](O)[C@H]1O ?
1e+06 M⁻¹ s⁻¹

// repeat for CSCC[C@H](N)C(=O)O and report
76.7 M⁻¹ s⁻¹

What do you have for Nc1ncnc2c1ncn2[C@@H]1O[C@H](CI)[C@@H](O)[C@H]1O ?
181000 M⁻¹ s⁻¹

====

Some molecules, each annotated with its measured Km.
test system: Salinispora tropica CNB-440; assay: Effect on Salinispora tropica CNB-440 wild type recombinant SalL expressed in Escherichia coli BL21(DE3)-mediated S-Adenosyl methionine formation after 30 mins by HPLC analysis

In the examples that follow, each entry is paired with its recorded Km.
> print(dat)
                              line.notation  observed.result
1  Nc1ncnc2c1ncn2[C@@H]1O[C@H](CI)[C@@H](O)[C@H]1O           4.6 µM
2                        CSCC[C@H](N)C(=O)O          2600 µM

Shift focus to the following entry.
Suppose we examine the molecule Nc1ncnc2c1ncn2[C@@H]1O[C@H](CCl)[C@@H](O)[C@H]1O ; what Km value has been reported?
0.2 µM
